B1: mRNA-splicing (parent)
chain: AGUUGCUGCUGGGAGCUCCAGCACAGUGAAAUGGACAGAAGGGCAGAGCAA

- Variants of: B1
- measurement notes: exon inclusion enrichment index; higher = more inclusion; WT1 exon 5 minigene, HEK293
Kindly return Y if reported exon inclusion enrichment index is no lower than 0.1; return N if it is lower.

[Q] Does the variant G5A U7C G8A U10C G42U G43C have recorded exon inclusion enrichment index that is 0.1 or more?
[A] Y

[Q] What would you report for C6A U7C C9A U10C A40C G41C ?
[A] Y

[Q] And C6A U7A C9A U10A G28C A29C ?
[A] Y

[Q] Also need G5A C6G U7G C9A A23G , thanks.
[A] N

[Q] Queued: G5A U7C G8A U10C C18A
[A] Y

[Q] Query G5A C6U U7A G8U C9A G46A A47G next
[A] N

[Q] Now the same for G5A C6G U7G G8U
[A] N

[Q] Then G5A C6G U7G ?
[A] N

[Q] Now consider G5A C6U U7A G8U C9A G26U U27C .
[A] Y

[Q] Follow-up entry: G5C C6U G8C C9U U10C G33A G34U
[A] Y

[Q] Same read-out for C6A U7C G8U C9U U10C ?
[A] Y

[Q] // repeat for G5A U7C G8A U10C G38U A39U and report
[A] Y

[Q] Repeat with G5A C6G U7G C9A G12U G13C
[A] N

[Q] How about G5A C6G U7G C9A A37C G38A ?
[A] N

[Q] Now the same for G5A C6G U7G C9A A45G G46A
[A] N

[Q] Same lookup for C6A U7A C9A U10A A47C , please.
[A] Y

[Q] How about G5A C6G U7G C9A C16A ?
[A] N

[Q] Can you handle G5A C6U U7A G8U C9A A29G A30C next?
[A] N

[Q] Repeat with G5A U7C G8A U10C C24A A25C
[A] Y

[Q] Cool, now A47U G48A
[A] Y

[Q] How about G5C C6G U7C U10C G28U A29G ?
[A] Y

[Q] Field entry: C6A U7C C9A U10C G46A A47C
[A] Y
